// values below are reported pIC50
Target: PI3-kinase p110-delta/p85-alpha (Homo sapiens, UniProt O00329)
Sequence (P27986 whole entry): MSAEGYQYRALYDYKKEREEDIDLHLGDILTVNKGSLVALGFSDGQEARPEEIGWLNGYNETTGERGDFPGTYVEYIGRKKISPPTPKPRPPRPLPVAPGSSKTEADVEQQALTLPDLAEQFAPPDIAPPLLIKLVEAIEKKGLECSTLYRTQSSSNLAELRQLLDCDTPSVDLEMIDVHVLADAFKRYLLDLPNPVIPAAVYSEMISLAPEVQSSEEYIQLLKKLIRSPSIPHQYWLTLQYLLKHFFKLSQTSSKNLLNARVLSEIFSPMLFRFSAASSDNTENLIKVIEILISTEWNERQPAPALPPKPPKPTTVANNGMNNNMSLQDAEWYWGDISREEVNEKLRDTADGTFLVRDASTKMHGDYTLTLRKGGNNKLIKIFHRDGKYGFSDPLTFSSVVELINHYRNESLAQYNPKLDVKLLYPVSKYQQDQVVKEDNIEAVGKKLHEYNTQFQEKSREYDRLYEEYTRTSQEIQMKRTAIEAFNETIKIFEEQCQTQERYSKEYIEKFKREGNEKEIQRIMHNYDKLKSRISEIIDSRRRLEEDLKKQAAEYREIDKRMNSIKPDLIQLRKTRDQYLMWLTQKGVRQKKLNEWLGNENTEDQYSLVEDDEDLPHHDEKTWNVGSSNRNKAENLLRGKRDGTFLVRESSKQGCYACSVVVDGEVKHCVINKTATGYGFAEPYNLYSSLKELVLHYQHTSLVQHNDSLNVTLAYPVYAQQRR
Sequence (O00329 whole entry): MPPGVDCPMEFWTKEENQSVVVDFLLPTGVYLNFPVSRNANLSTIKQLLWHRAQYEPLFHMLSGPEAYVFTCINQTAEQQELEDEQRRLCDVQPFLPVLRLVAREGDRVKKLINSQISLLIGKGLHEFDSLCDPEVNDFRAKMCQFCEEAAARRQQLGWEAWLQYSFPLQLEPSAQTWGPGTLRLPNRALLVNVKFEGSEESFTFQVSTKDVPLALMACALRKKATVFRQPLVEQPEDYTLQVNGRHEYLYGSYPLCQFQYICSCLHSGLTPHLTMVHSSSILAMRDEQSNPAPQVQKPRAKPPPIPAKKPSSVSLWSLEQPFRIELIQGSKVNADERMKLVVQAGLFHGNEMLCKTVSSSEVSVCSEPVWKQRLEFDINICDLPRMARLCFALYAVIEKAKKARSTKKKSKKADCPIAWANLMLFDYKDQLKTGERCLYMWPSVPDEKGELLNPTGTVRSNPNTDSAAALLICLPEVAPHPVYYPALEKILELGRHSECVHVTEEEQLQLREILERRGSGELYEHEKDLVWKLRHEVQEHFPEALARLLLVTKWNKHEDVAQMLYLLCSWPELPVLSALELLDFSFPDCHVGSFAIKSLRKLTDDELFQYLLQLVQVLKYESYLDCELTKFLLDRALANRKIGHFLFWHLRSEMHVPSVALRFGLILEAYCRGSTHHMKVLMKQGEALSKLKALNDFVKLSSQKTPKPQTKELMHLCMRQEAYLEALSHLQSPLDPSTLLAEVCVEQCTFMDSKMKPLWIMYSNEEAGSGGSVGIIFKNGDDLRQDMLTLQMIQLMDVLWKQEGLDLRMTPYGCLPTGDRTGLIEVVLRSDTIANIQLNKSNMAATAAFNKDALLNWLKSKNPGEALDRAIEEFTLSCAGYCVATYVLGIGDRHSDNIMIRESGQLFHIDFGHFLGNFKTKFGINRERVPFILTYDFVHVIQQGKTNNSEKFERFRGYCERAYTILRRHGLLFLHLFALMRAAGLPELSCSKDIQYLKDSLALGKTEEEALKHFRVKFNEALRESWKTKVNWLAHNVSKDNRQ
Test: Inhibition of recombinant human full length N-terminal His6-tagged PI3K p110delta/untagged recombinant full length human p85alpha expressed in baculovirus infected Sf21 insect cells using PIP2 as substrate after 35 to 40 mins by HTRF assay
pIC50: −log10 of the molar value.
parameter: pIC50

[[record]]
compound = "COc1ncc(-c2cc(O[C@@H]3CCN(S(=O)(=O)C4CCOCC4)C3)c3cnn(C)c3n2)cc1NS(C)(=O)=O"
target_under_test = "PI3-kinase p110-delta/p85-alpha (Homo sapiens, UniProt O00329)"
data_value = 7.42

[[record]]
compound = "COc1ncc(-c2cc(O[C@@H]3CCN(CC4CCOCC4)C3)c3cnn(C)c3n2)cc1NS(C)(=O)=O"
target_under_test = "PI3-kinase p110-delta/p85-alpha (Homo sapiens, UniProt O00329)"
data_value = 7.74

[[record]]
compound = "COc1ncc(-c2cc(O[C@@H]3CCN(Cc4cnn(C)c4)C3)c3cnn(C)c3n2)cc1NS(C)(=O)=O"
target_under_test = "PI3-kinase p110-delta/p85-alpha (Homo sapiens, UniProt O00329)"
data_value = 8.09

[[record]]
compound = "COc1ncc(-c2cc(O[C@@H]3CCN(C(=O)C4(C)CCOCC4)C3)c3cnn(C)c3n2)cc1NS(C)(=O)=O"
target_under_test = "PI3-kinase p110-delta/p85-alpha (Homo sapiens, UniProt O00329)"
data_value = 7.74

[[record]]
compound = "COc1ncc(-c2cc(O[C@@H]3CCN(Cc4ccccc4)C3)c3cnn(C)c3n2)cc1NS(C)(=O)=O"
target_under_test = "PI3-kinase p110-delta/p85-alpha (Homo sapiens, UniProt O00329)"
data_value = 8.35

[[record]]
compound = "COc1ncc(-c2cc(N(C)[C@@H]3CCN(C(=O)C4CCOCC4)C3)c3cnn(C)c3n2)cc1NS(C)(=O)=O"
target_under_test = "PI3-kinase p110-delta/p85-alpha (Homo sapiens, UniProt O00329)"
data_value = 6.64

[[record]]
compound = "COc1ncc(-c2cc(NC(=O)c3coc(CN4CCN(C(C)C)CC4)n3)c3cnn(C)c3n2)cc1NS(C)(=O)=O"
target_under_test = "PI3-kinase p110-delta/p85-alpha (Homo sapiens, UniProt O00329)"
data_value = 8.08

[[record]]
compound = "COc1ncc(-c2cc(O[C@@H]3CCN(C(=O)C4CCOCC4)C3)c3cnn(C)c3n2)cc1NS(C)(=O)=O"
target_under_test = "PI3-kinase p110-delta/p85-alpha (Homo sapiens, UniProt O00329)"
data_value = 8.28

[[record]]
compound = "COc1ncc(-c2cc(NC(=O)c3coc(CN4CCN(Cc5cccnc5)CC4)n3)c3cnn(C)c3n2)cc1NS(C)(=O)=O"
target_under_test = "PI3-kinase p110-delta/p85-alpha (Homo sapiens, UniProt O00329)"
data_value = 9.12

[[record]]
compound = "COc1ncc(-c2cc(O[C@@H]3CCN(C(=O)c4ccccc4)C3)c3cnn(C)c3n2)cc1NS(C)(=O)=O"
target_under_test = "PI3-kinase p110-delta/p85-alpha (Homo sapiens, UniProt O00329)"
data_value = 7.80

[[record]]
compound = "COc1ncc(-c2cc(O[C@H]3CCN(C(=O)C4CCOCC4)C3)c3cnn(C)c3n2)cc1NS(C)(=O)=O"
target_under_test = "PI3-kinase p110-delta/p85-alpha (Homo sapiens, UniProt O00329)"
data_value = 7.28

[[record]]
compound = "COc1ncc(-c2cc(O[C@@H]3CCN(C(=O)CC4CCOCC4)C3)c3cnn(C)c3n2)cc1NS(C)(=O)=O"
target_under_test = "PI3-kinase p110-delta/p85-alpha (Homo sapiens, UniProt O00329)"
data_value = 7.44

[[record]]
compound = "COc1ncc(-c2cc(N[C@@H]3CCN(C(=O)C4CCOCC4)C3)c3cnn(C)c3n2)cc1NS(C)(=O)=O"
target_under_test = "PI3-kinase p110-delta/p85-alpha (Homo sapiens, UniProt O00329)"
data_value = 6.96

[[record]]
compound = "COc1ncc(-c2cc(O[C@@H]3CCN(Cc4c(C)nn(C)c4C)C3)c3cnn(C)c3n2)cc1NS(C)(=O)=O"
target_under_test = "PI3-kinase p110-delta/p85-alpha (Homo sapiens, UniProt O00329)"
data_value = 8.35

[[record]]
compound = "COc1ncc(-c2cc(O[C@@H]3CCN(C4CCOCC4)C3)c3cnn(C)c3n2)cc1NS(C)(=O)=O"
target_under_test = "PI3-kinase p110-delta/p85-alpha (Homo sapiens, UniProt O00329)"
data_value = 7.28

[[record]]
compound = "COc1ncc(-c2cc(NC(=O)c3coc(CN4CCN(CCN5CCOCC5)CC4)n3)c3cnn(C)c3n2)cc1NS(C)(=O)=O"
target_under_test = "PI3-kinase p110-delta/p85-alpha (Homo sapiens, UniProt O00329)"
data_value = 8.48


----------
Molecular target: Phosphatidylinositol 4,5-bisphosphate 3-kinase catalytic subunit gamma isoform (Homo sapiens, UniProt P48736)
Sequence (P48736 whole entry, canonical isoform): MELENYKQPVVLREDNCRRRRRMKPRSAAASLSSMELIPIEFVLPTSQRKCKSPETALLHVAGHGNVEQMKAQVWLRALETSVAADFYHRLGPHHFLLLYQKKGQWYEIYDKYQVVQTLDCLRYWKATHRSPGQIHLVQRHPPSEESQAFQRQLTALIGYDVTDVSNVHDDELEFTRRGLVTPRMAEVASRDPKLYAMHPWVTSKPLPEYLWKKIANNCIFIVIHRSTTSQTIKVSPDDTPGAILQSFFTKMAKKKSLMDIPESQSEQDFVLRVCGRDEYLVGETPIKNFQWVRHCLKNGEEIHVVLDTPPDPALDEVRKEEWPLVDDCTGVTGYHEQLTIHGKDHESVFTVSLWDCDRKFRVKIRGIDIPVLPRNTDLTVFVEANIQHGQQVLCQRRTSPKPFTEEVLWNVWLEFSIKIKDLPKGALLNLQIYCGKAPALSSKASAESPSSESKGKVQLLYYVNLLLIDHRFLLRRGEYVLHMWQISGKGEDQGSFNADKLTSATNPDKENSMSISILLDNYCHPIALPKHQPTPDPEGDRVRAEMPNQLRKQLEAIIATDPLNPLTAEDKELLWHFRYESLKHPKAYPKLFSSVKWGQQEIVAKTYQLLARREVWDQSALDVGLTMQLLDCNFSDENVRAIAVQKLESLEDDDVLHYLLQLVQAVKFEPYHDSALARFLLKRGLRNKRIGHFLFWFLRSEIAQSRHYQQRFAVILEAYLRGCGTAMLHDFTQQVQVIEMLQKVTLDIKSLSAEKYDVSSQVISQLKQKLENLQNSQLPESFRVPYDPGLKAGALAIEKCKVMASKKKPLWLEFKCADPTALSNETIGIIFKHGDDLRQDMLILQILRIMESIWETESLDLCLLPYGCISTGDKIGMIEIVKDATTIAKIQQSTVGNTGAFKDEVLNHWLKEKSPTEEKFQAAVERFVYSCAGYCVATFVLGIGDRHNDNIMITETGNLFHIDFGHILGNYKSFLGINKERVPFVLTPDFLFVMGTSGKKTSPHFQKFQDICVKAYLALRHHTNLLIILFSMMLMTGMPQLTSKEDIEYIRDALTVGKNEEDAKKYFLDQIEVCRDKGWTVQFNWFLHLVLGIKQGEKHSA
Experiment: Inhibition of recombinant human full length N-terminal His-tagged PI3Kgamma expressed in Sf9 insect cells using PIP2 as substrate after 35 to 40 mins by HTRF assay
pIC50: −log10 of the molar value.
parameter: pIC50

[[record]]
compound = "COc1ncc(-c2cc(O[C@@H]3CCN(Cc4c(C)nn(C)c4C)C3)c3cnn(C)c3n2)cc1NS(C)(=O)=O"
parameter = "pIC50"
data_value = "< 5.00"

